- assayDetails: Tanguay_ZF_120hpf_OTIC_legacy: (Legacy) Oregon State University Tanguay Lab 120 Hour Post-fertilization zebrafish Assay for Otic Vesicle Malformation (AID 2283639)
Records with an inconclusive call do not appear. Activity calls are given as the source filed them. Rule for the calls: active = hit-call score of the fitted dose curve at least 0.9, where 1 is the maximum; inconclusive = response in the unintended direction; inactive = score below 0.9.
# output must be one of 1.0 (active), 0.0 (inactive)

Solved cases (10 shown):
[
  {
    "molecule": "O=C(O)c1ccccc1C(=O)OCc1ccccc1",
    "qualitativeLabel": 0.0
  },
  {
    "molecule": "Clc1cc(Cl)c2c(c1)N=C1CCCCCN1C2",
    "qualitativeLabel": 0.0
  },
  {
    "molecule": "CCO[Si](CCCNC(N)=O)(OCC)OCC",
    "qualitativeLabel": 0.0
  },
  {
    "molecule": "O=c1c(-c2ccc(O)cc2)coc2cc(O)cc(O)c12",
    "qualitativeLabel": 0.0
  },
  {
    "molecule": "CC/C(=C(/CC)c1ccc(O)cc1)c1ccc(O)cc1",
    "qualitativeLabel": 0.0
  },
  {
    "molecule": "CCN(Cc1cccc(S(=O)(=O)O)c1)c1ccc(C(=C2C=CC(=[N+](CC)Cc3cccc(S(=O)(=O)O)c3)C=C2)c2ccccc2S(=O)(=O)[O-])cc1",
    "qualitativeLabel": 0.0
  },
  {
    "molecule": "O=C(O)Cn1c(=O)n(Cc2ccc(Br)cc2F)c(=O)c2ccc(Cl)cc21",
    "qualitativeLabel": 0.0
  },
  {
    "molecule": "CC(C)(C)c1csc(-c2cc3cc(OCc4ccccc4CC(=O)O)ccc3o2)n1",
    "qualitativeLabel": 0.0
  },
  {
    "molecule": "CC1(C)NC(=O)N(c2ccc([N+](=O)[O-])c(C(F)(F)F)c2)C1=O",
    "qualitativeLabel": 0.0
  },
  {
    "molecule": "O=c1ccc2ccccc2o1",
    "qualitativeLabel": 0.0
  }
]

[Q] For CN(C[C@@H](CC[N+]12CCC(C3CCCCC3)(CC1)CC2)c1ccc(Cl)c(Cl)c1)C(=O)c1cc(C(F)(F)F)cc(C(F)(F)F)c1 , which call appears in the assay record?
[A] 0.0

[Q] For CC[C@H](NC(=O)c1cc(F)ccc1NS(=O)(=O)c1cccc2cccnc12)c1ccccc1 , which call appears in the assay record?
[A] 0.0

[Q] For CO[C@H]1/C=C/O[C@@]2(C)Oc3c(C)c(O)c4c(O)c(c(/C=N/N5CCN(C)CC5)c(O)c4c3C2=O)NC(=O)/C(C)=C\C=C\[C@H](C)[C@H](O)[C@@H](C)[C@@H](O)[C@@H](C)[C@H](OC(C)=O)[C@@H]1C , which call appears in the assay record?
[A] 0.0

----------
- assayDetails: ATG_TGFb_CIS: Attagene CIS-FACTORIAL HepG2 Assay for human Transforming Growth Factor (TGF) (AID 2282967)
- condition: HepG2 Attagene CIS TGFb reporter, mRNA transcription; actives raise or lower the signal
The source made the active and inactive calls. How the source made its calls: active means hit-call score of the fitted dose curve at least 0.9, where 1 is the maximum; inactive means score below 0.9.
# output must be one of Y for active, N for inactive

Solved cases (5 shown):
[
  {
    "compound": "CC[C@H](NC(=O)c1cc(F)ccc1NS(=O)(=O)c1cccc2cccnc12)c1ccccc1",
    "qualitativeLabel": "N"
  },
  {
    "compound": "CCOC(=O)O[C@H](C)OC(=O)c1ccc2c(c1)cc(C(=O)NC1CCN(C(C)C)CC1)n2Cc1cc(-c2ccc(Cl)s2)on1",
    "qualitativeLabel": "N"
  },
  {
    "compound": "Cc1cc2c(cc1C(F)(F)F)N(C(=O)Nc1ccc(Oc3cccnc3C)nc1)CC2",
    "qualitativeLabel": "N"
  },
  {
    "compound": "CCCCCCCCCC(=O)O",
    "qualitativeLabel": "N"
  },
  {
    "compound": "CN(C[C@@H](CC[N+]12CCC(C3CCCCC3)(CC1)CC2)c1ccc(Cl)c(Cl)c1)C(=O)c1cc(C(F)(F)F)cc(C(F)(F)F)c1",
    "qualitativeLabel": "N"
  }
]

Now let's try a different one.
[Q] For O=C=NCCCCCCN=C=O , which call appears in the assay record?
[A] N

----------
- assayDetails: APR_HepG2_MicrotubuleCSK_72hr: Apredica 72-hour HepG2 Assay for Microtubule CSK Stabilty (AID 2282919)
- condition: HepG2 microtubule cytoskeleton, high-content imaging, actives raise or lower the signal
Active and inactive are the calls of the source. How the source made its calls: active means hit-call score of the fitted dose curve at least 0.9, where 1 is the maximum; inactive means score below 0.9.
# output must be one of 1 (active), 0 (inactive)

Solved cases (5 shown):
[
  {
    "mol": "CC(C)(C)c1csc(-c2cc3cc(OCc4ccccc4CC(=O)O)ccc3o2)n1",
    "qualitativeLabel": 0
  },
  {
    "mol": "Cc1cn([C@H]2C[C@H](N=[N+]=[N-])[C@@H](CO)O2)c(=O)[nH]c1=O",
    "qualitativeLabel": 0
  },
  {
    "mol": "O=C1CCC(C2CCCCC2)CC1",
    "qualitativeLabel": 0
  },
  {
    "mol": "CCCCCCCCCCCCO",
    "qualitativeLabel": 0
  },
  {
    "mol": "Cc1ccc2oc(CN(Cc3ccccc3)C(=O)Nc3c(F)cc(F)cc3F)c(-c3ccc(Cl)cc3)c2c1",
    "qualitativeLabel": 0
  }
]

[Q] For O=C(O)Cn1c(=O)n(Cc2ccc(Br)cc2F)c(=O)c2ccc(Cl)cc21 , which call appears in the assay record?
[A] 0

[Q] For CCOC(=O)O[C@H](C)OC(=O)c1ccc2c(c1)cc(C(=O)NC1CCN(C(C)C)CC1)n2Cc1cc(-c2ccc(Cl)s2)on1 , which call appears in the assay record?
[A] 1

----------
- studySystem: Luciferin 4-monooxygenase (Photinus pyralis)
- assayDetails: CCTE_Simmons_QuantiLum_inhib_2: CCTE's Firefly Luciferase Inhibition Assay, Simmons Lab (AID 2283767);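 for AC50: potency for inhibitors that lower luciferase luminescence relative to DMSO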
Results filed as inconclusive are left out. Activity calls are given as the source filed them. The calls were made as follows: active = hit-call score of the fitted dose curve at least 0.9, where 1 is the maximum; inconclusive = response in the unintended direction; inactive = score below 0.9.
endpointLabel: AC50

[
  {
    "mol": "COc1cc(C(=O)NC2CCN(C)CC2)ccc1Nc1ncc2c(n1)N(C1CCCC1)CC(F)(F)C(=O)N2C",
    "AC50": "inactive"
  },
  {
    "mol": "Oc1ccccc1",
    "AC50": "inactive"
  },
  {
    "mol": "O=C1CCC(C2CCCCC2)CC1",
    "AC50": "3.38 µM (active)"
  },
  {
    "mol": "CCCOC(=O)c1cc(O)c(O)c(O)c1",
    "AC50": "inactive"
  },
  {
    "mol": "C[C@]12CC[C@@H]3c4ccc(O)cc4CC[C@H]3[C@@H]1CC[C@H]2O",
    "AC50": "inactive"
  }
]

Assay Luciferin 4-monooxygenase (Photinus pyralis), sample CCCCCc1ccc(N)cc1 , AC50 read: inactive

Assay Luciferin 4-monooxygenase (Photinus pyralis), sample CC(C)(C)c1csc(-c2cc3cc(OCc4ccccc4CC(=O)O)ccc3o2)n1 , AC50 read: 10.7 µM (active)

Assay Luciferin 4-monooxygenase (Photinus pyralis), sample O=C1O[C@H]([C@@H](O)CO)C(O)=C1O , AC50 read: inactive

Assay Luciferin 4-monooxygenase (Photinus pyralis), sample Cc1c2ccccc2c(C)c2c1ccc1ccccc12 , AC50 read: inactive

Assay Luciferin 4-monooxygenase (Photinus pyralis), sample CN(C[C@@H](CC[N+]12CCC(C3CCCCC3)(CC1)CC2)c1ccc(Cl)c(Cl)c1)C(=O)c1cc(C(F)(F)F)cc(C(F)(F)F)c1 , AC50 read: inactive

Assay Luciferin 4-monooxygenase (Photinus pyralis), sample CC(C)(c1cc(Br)c(O)c(Br)c1)c1cc(Br)c(O)c(Br)c1 , AC50 read: inactive

----------
- assayDetails: ATG_ERE_CIS: Attagene CIS-FACTORIAL HepG2 Assay for Estrogen Response Element (ERE) (AID 2282940)
- condition: HepG2 ERE cis-reporter, Attagene RNA transcript; actives raise or lower the signal
The source made the active and inactive calls. How the source made its calls: active means hit-call score of the fitted dose curve at least 0.9, where 1 is the maximum; inactive means score below 0.9.
# output must be one of active, inactive

Solved cases (10 shown):
[
  {
    "mol": "Cc1oc2c(NC(=O)c3c(Cl)cccc3Cl)cccc2c1C(C)(C)O",
    "qualitativeLabel": "inactive"
  },
  {
    "mol": "CC1=CC(=O)/C(=C(/C)O)C(=O)O1",
    "qualitativeLabel": "inactive"
  },
  {
    "mol": "Cc1ccc2oc(CN(Cc3ccccc3)C(=O)Nc3c(F)cc(F)cc3F)c(-c3ccc(Cl)cc3)c2c1",
    "qualitativeLabel": "inactive"
  },
  {
    "mol": "CCCC(=O)OCCC(C)C",
    "qualitativeLabel": "inactive"
  },
  {
    "mol": "O=C(OCCCCCCOC(=O)c1ccccc1)c1ccccc1",
    "qualitativeLabel": "inactive"
  },
  {
    "mol": "NC(=O)c1nc(-c2cccc(-c3cc(F)ccc3OCC(F)(F)C(F)(F)F)c2)n[nH]1",
    "qualitativeLabel": "inactive"
  },
  {
    "mol": "O=C(O)c1ccccc1-n1cc(C(=O)O)c(=O)c2cc(Nc3c(F)cc(F)cc3Cl)c(Cl)cc21",
    "qualitativeLabel": "inactive"
  },
  {
    "mol": "Clc1ccccc1C(c1ccccc1)(c1ccccc1)n1ccnc1",
    "qualitativeLabel": "active"
  },
  {
    "mol": "Clc1cc(Cl)c2c(c1)N=C1CCCCCN1C2",
    "qualitativeLabel": "inactive"
  },
  {
    "mol": "CCCOC(=O)c1cc(O)c(O)c(O)c1",
    "qualitativeLabel": "active"
  }
]

Now let's try a different one.
[Q] For COc1cccc([C@H](O)C2CCN(CCc3ccc(F)cc3)CC2)c1OC , which call appears in the assay record?
[A] inactive
